Let's look at some molecules and their measured GI50.
Test system: OVCAR-8
Test: NCI tumour cell line growth inhibition, 48 h
The source made the active and inactive calls. Cut-off read from the data, not from the text of the source: active = GI50 up to about 1.1 µM and inactive = higher.
Readout Name: GI50

>>> print(df.to_string())
                         structure_notation       observed_value
0  COc1ccc(Cn2c(=O)c(OC)c(C)c3cc4ccccc4cc32)cc1   27.9 µM (inactive)
1  CCOC(=O)c1cc(C2=CCNC2=O)c(-c2cc(C)no2)[nH]1     45 µM (inactive)
2    CSc1nc(SC)c2c(CO)c(Br)n(Cc3ccccc3)c2n1     18 µM (inactive)
3  O=C1C(Cl)=CC2(C=C1Cl)CCNC1=C2C(=O)c2nc[nH]c2C1=O   32.9 µM (inactive)
4                CN1Cc2ccccc2/C=C\c2ccccc21  > 100 µM (inactive)
5                       CCCCCCCCCCCCNC(C)=O   18.9 µM (inactive)
